Protein target, amino acids: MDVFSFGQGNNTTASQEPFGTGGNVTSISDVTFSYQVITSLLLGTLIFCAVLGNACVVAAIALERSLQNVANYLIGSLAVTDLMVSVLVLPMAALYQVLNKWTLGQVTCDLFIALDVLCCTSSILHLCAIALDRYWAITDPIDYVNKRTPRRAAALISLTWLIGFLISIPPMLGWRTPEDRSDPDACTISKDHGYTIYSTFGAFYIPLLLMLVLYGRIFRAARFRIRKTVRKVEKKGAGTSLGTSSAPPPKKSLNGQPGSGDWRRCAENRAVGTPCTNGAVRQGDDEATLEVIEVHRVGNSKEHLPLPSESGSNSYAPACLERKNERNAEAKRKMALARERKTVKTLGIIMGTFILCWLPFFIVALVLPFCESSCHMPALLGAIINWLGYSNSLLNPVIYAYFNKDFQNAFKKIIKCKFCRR
Note that class boundaries on Ki are L = under 5 nM, M = from 5 nM up to 30 nM, H = 30 nM and over

Please review the entries below; each comes with its answer.
| COMPOUND | DISCRETE_LABEL |
| --- | --- |
| COc1ccccc1N1CCN(Cc2ccc(CN(C)S(=O)(=O)C(C)C)n2C)CC1.O=C(O)CCC(=O)O | H |
| CC(C)Oc1ccccc1N1CCN(CC2CC(CO)=NO2)CC1 (centres undefined) | H |
| COc1ccccc1N1CCN(Cc2ccc(CN3CCCCCC3=O)o2)CC1.O=C(O)CCC(=O)O | M |
| O=C(O)CCC(=O)O.O=C1CCCCN1Cc1ccc(CN2CCN(c3cccc4ccoc34)CC2)s1 | L |
| CC(C)Oc1ccccc1N1CCN(Cc2ccc(CN(C(=O)C3CCCCC3)C(C)C)n2C)CC1.O=C(O)CCC(=O)O | L |
| CC(C)Oc1ccccc1N1CCN(CC2CC(CN3CCCCC3=O)=NO2)CC1 (centres undefined) | M |
| CC(C)Oc1ccccc1N1CCN(Cc2ccc(CN(C)C(=O)C(C)C)n2C)CC1.O=C(O)CCC(=O)O | L |
| CC(C)Oc1ccccc1N1CCN(Cc2ccc(CN3CCCCC3=O)o2)CC1.O=C(O)CCC(=O)O | M |

Turning to the following compound.
State the class of the compound shown: `CC(C)Oc1ccccc1N1CCN(CCc2ccc(C(=O)C(=O)N3CCOCC3)n2C)CC1.O=C(O)CCC(=O)O`
M

FYI, the data here is from ChEMBL document CHEMBL1128321.
